Biological target: UniProt:P08908
Sequence (P08908 1-422): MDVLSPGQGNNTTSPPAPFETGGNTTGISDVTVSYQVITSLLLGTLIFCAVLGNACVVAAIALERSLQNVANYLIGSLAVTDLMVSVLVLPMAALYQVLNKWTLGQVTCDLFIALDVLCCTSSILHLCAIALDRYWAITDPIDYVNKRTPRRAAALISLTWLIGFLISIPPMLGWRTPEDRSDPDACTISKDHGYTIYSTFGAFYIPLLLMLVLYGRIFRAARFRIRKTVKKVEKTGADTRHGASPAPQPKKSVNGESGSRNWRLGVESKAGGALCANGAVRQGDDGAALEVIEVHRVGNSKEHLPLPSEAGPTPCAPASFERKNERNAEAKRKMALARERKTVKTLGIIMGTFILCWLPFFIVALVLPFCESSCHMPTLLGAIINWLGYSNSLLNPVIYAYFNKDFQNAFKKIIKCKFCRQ
Assay: [3H] 8-OH-DPAT displacement from 5HT1A receptor in stably transfected CHO cells
Conditions: CHO cells with human 5HT1A, read-out: 5HT1A Receptor Affinity Ki
pKi: −log10 of the molar value.
Recorded pKi by entry

{"SMILES_NOTATION": "Cc1ccc2c3c(ccc2n1)OC[C@H](CN1CCN(c2ccc4cc([N+](=O)[O-])ccc4n2)CC1)O3", "TARGET_OR_SYSTEM": "UniProt:P08908", "pKi": 7.70}
{"SMILES_NOTATION": "Cc1ccc2c3c(ccc2n1)OC[C@H](CN1CCN(c2ccc4ccccc4n2)C[C@@H]1C)O3", "TARGET_OR_SYSTEM": "UniProt:P08908", "pKi": 6.78}
{"SMILES_NOTATION": "Cc1ccc2c3c(ccc2n1)OC[C@H](CN1CCN(c2ccc4ccccc4n2)CC1)O3", "TARGET_OR_SYSTEM": "UniProt:P08908", "pKi": 7.33}
{"SMILES_NOTATION": "Cc1ccc2c3c(ccc2n1)OC[C@H](CN1CCN(c2ccc4cc(Br)ccc4n2)CC1)O3", "TARGET_OR_SYSTEM": "UniProt:P08908", "pKi": 7.77}
{"SMILES_NOTATION": "COc1cccc2c(N3CCN(C[C@H]4COc5ccc6nc(C)ccc6c5O4)CC3)coc12", "TARGET_OR_SYSTEM": "UniProt:P08908", "pKi": 7.55}
{"SMILES_NOTATION": "Cc1ccc2c3c(ccc2n1)OC[C@H](CN1CCN(c2ccc4cc(C#N)ccc4n2)CC1)O3", "TARGET_OR_SYSTEM": "UniProt:P08908", "pKi": 8.43}
